Test system: NCI-H1792
Protocol Details: relative viability (nuclei count vs DMSO), 5 days (fraction); higher = more cells survive
Condition Context: first compound 0.05 µM
For each of the molecules below, state its relative viability.
// keep it numeric: no unit symbol after the value

Tested on NCI-H1792: Nc1ccn([C@@H]2O[C@H](CO)[C@@H](O)[C@@H]2O)c(=O)n1 [Cytarabine] + CC1(C)CCC(c2ccc(Cl)cc2)=C(CN2CCN(c3ccc(C(=O)NS(=O)(=O)c4ccc(N[C@H](CCN5CCOCC5)CSc5ccccc5)c(S(=O)(=O)C(F)(F)F)c4)cc3)CC2)C1 [Navitoclax] (partner 0.5 µM) . Observed relative viability: 0.223

Field relative viability (NCI-H1792), entry COc1cc2nccc(Oc3ccc(NC(=O)Nc4cc(C)on4)c(Cl)c3)c2cc1OC [Tivozanib] + C[C@]1(O)C[C@@H](c2nc(-c3ccc4ccc(-c5ccccc5)nc4c3)c3c(N)nccn32)C1 [Linsitinib] (partner 1 µM) : 0.534

Entry COc1cc2nccc(Oc3ccc(NC(=O)Nc4cc(C)on4)c(Cl)c3)c2cc1OC [Tivozanib] + CC1(C)CCC(c2ccc(Cl)cc2)=C(CN2CCN(c3ccc(C(=O)NS(=O)(=O)c4ccc(N[C@H](CCN5CCOCC5)CSc5ccccc5)c(S(=O)(=O)C(F)(F)F)c4)cc3)CC2)C1 [Navitoclax] (partner 0.5 µM) : relative viability on NCI-H1792 = 0.657

Sample COc1cc2nccc(Oc3ccc(NC(=O)Nc4cc(C)on4)c(Cl)c3)c2cc1OC [Tivozanib] + CC(=O)c1c(C)c2cnc(Nc3ccc(N4CCNCC4)cn3)nc2n(C2CCCC2)c1=O [Palbociclib] (partner 0.5 µM) , system: NCI-H1792. Its relative viability is 0.553

// assay NCI-H1792, entry Nc1ccn([C@@H]2O[C@H](CO)[C@@H](O)[C@@H]2O)c(=O)n1 [Cytarabine] + C[C@@H](Oc1cc(-c2cnn(C3CCNCC3)c2)cnc1N)c1c(Cl)ccc(F)c1Cl [Crizotinib] (partner 1 µM) , relative viability value = 0.861

Tested on NCI-H1792: Nc1ccn([C@@H]2O[C@H](CO)[C@@H](O)[C@@H]2O)c(=O)n1 [Cytarabine] + CC(C)C[C@H](NC(=O)[C@H](Cc1ccccc1)NC(=O)c1cnccn1)B(O)O [Bortezomib] (partner 0.002 µM) . Observed relative viability: 0.795

Item COc1cc2nccc(Oc3ccc(NC(=O)Nc4cc(C)on4)c(Cl)c3)c2cc1OC [Tivozanib] + CS(=O)(=O)N1CCN(Cc2cc3nc(-c4cccc5[nH]ncc45)nc(N4CCOCC4)c3s2)CC1 [Pictilisib] (partner 1 µM) ; assay system NCI-H1792; relative viability reported as 0.289

Measured relative viability for this entry COc1cc2nccc(Oc3ccc(NC(=O)Nc4cc(C)on4)c(Cl)c3)c2cc1OC [Tivozanib] + Cc1nc(NC(=O)N2CCC[C@H]2C(N)=O)sc1-c1ccnc(C(C)(C)C(F)(F)F)c1 [Alpelisib] (partner 2 µM) on NCI-H1792: 0.786
